# target_entity: human CCR10 (human)
# assay_comment: cell-based or functional assay
IC50 (nM) Calcium Flux Assay under 200 nM gets MET, anything at or over 200 nM gets NOT MET.

- cyclo(-Trp-Cyp-Trp-Dab(MePpzCO)-^DPro-Oic-) (peptide): MET
- cyclo(-Trp-Cyp-Trp-Arg-^DAze-Tic-) (peptide): MET
- cyclo(-Trp-Cyp-Trp-Ser-^DPro-Hyp(Bn)-) (peptide): MET
- cyclo(-Phe(4CF3)-Cyp-Trp-Dab-^DPip-Pro((4R)Ph)-) (peptide): MET
- cyclo(-Trp-Cyp-Trp-Dab(4Me2NPhSO2)-^DPro-Oic-) (peptide): MET
- cyclo(-Trp-Cyp-Trp-Dab-^DPro-Pro((4S)cHex)-) (peptide): MET
- cyclo(-2Nal-Cyp-Trp-Dab-^DPip-Pip-) (peptide): MET
- cyclo(-Trp-Chx-Trp-Dab-^DPro-Oic-) (peptide): NOT MET
- cyclo(-Trp-Cyp-Trp-Dab-^DPro-Hyp(3CNBn)-) (peptide): MET
- cyclo(-Trp-Cyp-Trp-Dab-^DPro-Pro((4R)3CNBn)-) (peptide): MET
- cyclo(-Cha-Cyp-Trp-Dab-^DPro-Oic-) (peptide): NOT MET
- cyclo(-Trp-^DLAtc-Trp-Dab-^DPro-Oic-) (peptide): NOT MET
- cyclo(-Trp-Cyp-Trp-Dab-^DPro-Hyp(CONHPh)-) (peptide): MET
- cyclo(-Trp-Cyp-Trp-Lys((5R)OH)-^DPro-Oic-) (peptide): NOT MET
- cyclo(-Trp-Cyp-Trp-Dab-^DPro-(4S)-Hyp(Bn)-) (peptide): NOT MET

###

Examples of substances with documented IC50 (nM) Chemotaxis Assay follow.
# target_entity: human CCR10 (human)
# assay_comment: cell-based or functional assay
measured_endpoint: IC50 (nM) Chemotaxis Assay

• cyclo(-Tyr(4MeOCOBn)-Cyp-Trp-Dab-^DPro-Oic-) (peptide) = 2.3
• cyclo(-Trp-Cyp-Trp-Lys(4Oxa)-^DPro-Oic-) (peptide) = 5.9
• cyclo(-Trp-Cyp-Trp-Dab(MEMCO)-^DPro-Oic-) (peptide) = 11.5
• cyclo(-Trp-Cyp-Trp-alloThr-^DPro-Oic-) (peptide) = 1.2
• cyclo(-Trp-Cyp-Trp-Dab-^DPro-Hyp(4CNBn)-) (peptide) = 143
• cyclo(-Trp-Cyp-Trp-Dab-^DPro-(4S)-Hyp(Bn)-) (peptide) = 60.1
• cyclo(-Trp-Cyp-Trp-Lys(Me)-^DPro-Oic-) (peptide) = 4.4
• cyclo(-Trp-Cyp-Trp-Thr-^DPro-Oic-) (peptide) = 5.4
• cyclo(-Phe(4COOMe)-Cyp-Trp-Dab-^DPro-Oic-) (peptide) = 14.7
• cyclo(-Trp(6Cl)-Cyp-Trp-Dab-^DPro-Hyp(Bn)-) (peptide) = 8.6
• cyclo(-Tyr(40HPh)-Cyp-Trp-Dab-^DPro-Oic-) (peptide) = 6.6
• cyclo(-Trp-Cyp-Trp-Dab-^DPro-Pro((4R)4BrBn)-) (peptide) = 9
• cyclo(-Trp(5OH)-Cyp-Trp-Gln-^DPro-Thz-) (peptide) = 3.1
• cyclo(-Trp-Cyp-Trp-Dab-^DPro-Hyp(Ph)-) (peptide) = 37
• cyclo(-Trp-Cyp-Trp-Dab-^DPro-Pro((4R)3CNBn)-) (peptide) = 3.8
• cyclo(-Trp-Cyp-Trp-hSer(Me)-^DPro-Oic-) (peptide) = 1.8
• cyclo(-Trp-Cyp-Trp-Met(O2)-^DPro-Oic-) (peptide) = 1.2
• cyclo(-Trp-Cyp-Trp-Dab(morphCO)-^DPro-Oic-) (peptide) = 11.1
• cyclo(-Bip-Cyp-Trp-Dab-^DPro-Oic-) (peptide) = 1.8
• cyclo(-Trp-Cyp-Trp-Dab-^DPro-Hyp(CONHPh)-) (peptide) = 184
• cyclo(-OctG-Cyp-Trp-Dab-^DPro-Oic-) (peptide) = 4.2
• cyclo(-Trp-Cyp-Trp-Dab-^DPro-Pro((4S)cHex)-) (peptide) = 140
• cyclo(-Trp-Cyp-Trp-Dab((MeO(CH2)2)(Me)NCO)-^DPro-Oic-) (peptide) = 5.6
• cyclo(-Trp-Cyp-Trp-Dap((MeO(CH2)2)2)-^DPro-Oic-) (peptide) = 15.2
• cyclo(-Phe(4CN)-Cyp-Trp-Ser-^DPro-Hyp(4BrBn)-) (peptide) = 0.6
• cyclo(-Trp-Cyp-Trp-Ser-^DPro-Oic-) (peptide) = 1.4
• cyclo(-Trp-Cyp-Trp-Dab-^DPro-Thz-) (peptide) = 19.6
• cyclo(-Bbta-Cyp-Trp-Dab-^DPro-Oic-) (peptide) = 18.9

###

# target_entity: human CCR10 (human) (UniProt P46092)
# Sequence (P46092 whole entry): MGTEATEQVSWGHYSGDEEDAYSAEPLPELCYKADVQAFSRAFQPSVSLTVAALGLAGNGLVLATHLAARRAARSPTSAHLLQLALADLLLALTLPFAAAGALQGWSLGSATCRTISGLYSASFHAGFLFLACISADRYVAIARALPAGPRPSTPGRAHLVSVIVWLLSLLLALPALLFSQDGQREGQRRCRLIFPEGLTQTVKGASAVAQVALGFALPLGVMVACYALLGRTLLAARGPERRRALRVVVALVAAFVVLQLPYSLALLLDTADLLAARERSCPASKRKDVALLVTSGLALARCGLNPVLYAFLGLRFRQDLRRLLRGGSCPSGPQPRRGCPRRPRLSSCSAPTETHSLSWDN
# assay_comment: cell-based or functional assay
Examples of substances with documented IC50 (nM) Chemotaxis Assay follow.
measured_endpoint: IC50 (nM) Chemotaxis Assay

- cyclo(-Tyr(Ph)-Cyp-Trp-Dab-^DPro-Oic-) (peptide): 1.7
- cyclo(-Trp-Cyp-Trp-Dab-^DPip-Oic-) (peptide): 17
- cyclo(-Trp-Cyp-Trp-Gln(iPr)-^DPro-Oic-) (peptide): 1
- cyclo(-Trp(6Cl)-Cyp-Trp-Ser-^DPro-Oic-) (peptide): 5
- cyclo(-Phe(4CF3)-Cyp-Trp-Dab-^DPip-Pro((4R)Ph)-) (peptide): 22
- cyclo(-Trp-Cyp-Trp-Dap(MeO(CH2)2)-^DPro-Oic-) (peptide): 6.9
- cyclo(-Trp-Cyp-Trp-Dab-^DPro-Pro(5,5Me2)-) (peptide): 14.2
- cyclo(-Phe(4CN)-Cyp-Trp-Dab-^DPro-Hyp(Bn)-) (peptide): 5.3
- cyclo(-Trp-Cyp-Trp-Dab(MeO(CH2)2NHCO)-^DPro-Oic-) (peptide): 5.3
- cyclo(-Trp-Cyp-Trp-Dab-^DPro-Hyp(3CNBn)-) (peptide): 50.7
- cyclo(-Trp-Cyp-Trp-Dab(MeSO2)-^DPro-Oic-) (peptide): 3.4
- cyclo(-2Nal-Cyp-Trp-Gln-^DPro-Tic-) (peptide): 2
- cyclo(-Phe(4CN)-Cyp-Trp-Ser-^DPip-Hyp(Bn)-) (peptide): 1.8
- cyclo(-hTyr-Cyp-Trp-Dab-^DPro-Oic-) (peptide): 13
- cyclo(-Trp-Cyp-Trp-Dab-^DPro-Pro((4S)F)-) (peptide): 42
- cyclo(-Phe(4CF3)-Cyp-Trp-Dab-^DPro-Oic-) (peptide): 13.4
- cyclo(-Trp-Cyp-Trp-hArg-^DPro-Oic-) (peptide): 3.7
- cyclo(-Trp-Cyp-Trp-Dab(MePpzCO)-^DPro-Oic-) (peptide): 5.3
- cyclo(-Trp-Cyp-Trp-Lys(Nic)-^DPro-Oic-) (peptide): 8.8
- cyclo(-Trp-Cyp-Trp-Ala(Ppz)-^DPro-Oic-) (peptide): 16.4
